Measured log10(IC50) values are reported for all entries that follow.
Target: mouse GnRH receptor (Mus musculus, UniProt Q01776)
Construct: expressed in transfected cells; host or cells: 293 cells
Sequence (Q01776 whole entry): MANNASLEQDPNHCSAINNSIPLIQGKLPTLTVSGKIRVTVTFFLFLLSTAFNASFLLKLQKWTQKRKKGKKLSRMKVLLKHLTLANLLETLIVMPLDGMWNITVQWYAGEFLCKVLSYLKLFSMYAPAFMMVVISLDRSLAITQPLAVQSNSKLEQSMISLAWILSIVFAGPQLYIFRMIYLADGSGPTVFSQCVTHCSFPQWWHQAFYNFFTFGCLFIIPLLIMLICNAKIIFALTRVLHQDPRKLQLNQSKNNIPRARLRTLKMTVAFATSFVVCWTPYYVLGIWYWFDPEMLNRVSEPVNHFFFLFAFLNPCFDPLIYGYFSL
Assay: Radioligand binding, 125I-GnRH-A, 293 cells expressing mouse GnRH receptors
Settings: means ± SE of at least three experiments performed in duplicate; read-out: Mouse IC50
Where a SMILES comes first, the peptide text is derived from it. [ ]: non-standard residue; d: D form. The star is where a group is joined. dPhe(4-Cl) = N[C@H](Cc1ccc(Cl)cc1)C(=O)O; d2Nal = N[C@H](Cc1ccc2ccccc2c1)C(=O)O; Lys(iPr) = CC(C)NCCCC[C@H](N)C(=O)O; d3Pal = N[C@H](Cc1cccnc1)C(=O)O; Nicotinoyl = O=C(c1cccnc1)*
measure: log10(IC50) (log10 of the value in nM)

| compound | reported |
| --- | --- |
| Cc1cnc(CNC(=O)c2ccc(Cc3cc4c(cc3C)C(C)(C)CCC4(C)C)o2)cn1 [Compound 13] | 2.08 |
| COc1cccc(CNC(=O)c2ccc(Cc3cc4c(cc3C)C(C)(C)CCC4(C)C)o2)c1OC [Compound 15] | 2.34 |
| Cc1ccc(CNC(=O)c2ccc(Cc3cc4c(cc3C)C(C)(C)CCC4(C)C)o2)cc1C [Compound 18] | 2.06 |
| Cc1cc2c(cc1Cc1ccc(C(=O)NC[C@H]3CC[C@H](C(=O)O)CC3)o1)C(C)(C)CCC2(C)C [Compound 12] | 3.85 |
| Cc1ccc(CNC(=O)c2ccc(Cc3cc4c(cc3C)C(C)(C)CCC4(C)C)o2)cc1 [Compound 14] | 2.46 |
| CCNC(=O)[C@@H]1CCCN1C(=O)[C@H](CCCNC(=N)N)NC(=O)[C@H](CC(C)C)NC(=O)[C@@H](C)NC(=O)[C@H](Cc1ccc(O)cc1)NC(=O)[C@H](CO)NC(=O)[C@H](Cc1c[nH]c2ccccc12)NC(=O)[C@H](Cc1c[nH]cn1)NC(=O)[C@@H]1CCC(=O)N1 [GnRH-A, [des-Gly^10,D-Ala^6]GnRH ethylamide, reference compound] | -0.66 |
| Cc1cc2c(cc1Cc1ccc(C(=O)NCC3CCC(CNC(=N)N)CC3)o1)C(C)(C)CCC2(C)C (stereo not drawn) [Compound 9] | 3.36 |
| Cc1cc2c(cc1Cc1ccc(C(=O)NCC3CCC(C#N)CC3)o1)C(C)(C)CCC2(C)C (stereo not drawn) [Compound 16] | 3.11 |
| Cc1cc2c(cc1Cc1ccc(C(=O)NCC3CCCC(CNc4nccc(NCC5CCCO5)n4)C3)o1)C(C)(C)CCC2(C)C (stereo not drawn) [Compound 11] | 1.70 |
| CC(=O)N[C@H](Cc1ccc2ccccc2c1)C(=O)N[C@H](Cc1ccc(Cl)cc1)C(=O)N[C@H](Cc1cccnc1)C(=O)N[C@@H](CO)C(=O)N[C@@H](CCCCNC(=O)c1cccnc1)C(=O)N[C@H](CCCCNC(=O)c1cccnc1)C(=O)N[C@@H](CC(C)C)C(=O)N[C@@H](CCCCNC(C)C)C(=O)N1CCC[C@H]1C(=O)N[C@H](C)C(N)=O [Antide, reference compound] (Ac-[d2Nal][dPhe(4-Cl)][d3Pal]SK(Nicotinoyl)[dK](Nicotinoyl)L[Lys(iPr)]P[dA]-NH2) | -0.60 |
| Cc1cc2c(cc1Cc1ccc(C(=O)NC[C@H]3CC[C@H](CNC(=N)N)CC3)o1)C(C)(C)CCC2(C)C [Compound 10] | 3.15 |
| Cc1cc2c(cc1Cc1ccc(C(=O)NCc3cccc(C)c3C)o1)C(C)(C)CCC2(C)C [Compound 17] | 1.90 |
